- TGT: PilB (CtPilB), type IV pilus assembly ATPase (Chloracidobacterium thermophilum)
- Sequence (G2LDI3 entry or part of it): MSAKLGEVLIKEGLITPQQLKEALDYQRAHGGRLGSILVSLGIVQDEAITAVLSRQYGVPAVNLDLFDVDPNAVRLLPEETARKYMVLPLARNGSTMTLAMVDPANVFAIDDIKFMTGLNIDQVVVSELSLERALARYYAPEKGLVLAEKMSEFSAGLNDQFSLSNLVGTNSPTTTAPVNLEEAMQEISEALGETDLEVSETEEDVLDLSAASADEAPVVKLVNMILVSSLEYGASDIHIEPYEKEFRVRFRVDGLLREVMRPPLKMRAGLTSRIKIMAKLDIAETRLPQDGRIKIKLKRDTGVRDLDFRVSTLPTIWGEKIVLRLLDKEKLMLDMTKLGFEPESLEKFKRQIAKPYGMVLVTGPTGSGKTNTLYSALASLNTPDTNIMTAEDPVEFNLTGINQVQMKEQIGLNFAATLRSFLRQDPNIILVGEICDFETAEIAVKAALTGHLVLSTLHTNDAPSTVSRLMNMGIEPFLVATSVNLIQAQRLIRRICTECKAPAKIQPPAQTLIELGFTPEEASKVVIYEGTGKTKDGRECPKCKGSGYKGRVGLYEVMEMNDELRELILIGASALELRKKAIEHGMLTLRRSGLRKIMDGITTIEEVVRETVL
MEASUREMENT NAME: pKi
// pKi: -log10(molar conc.)

// query Returns the measured pKi for the input molecule. Input: Nc1ncnc2c1ncn2[C@@H]1O[C@H](COP(=O)(O)OP(=O)(O)OP(=O)(O)O)[C@@H](O)[C@H]1O [ATP]
// result 5.66

----------
- TGT: PilB (CtPilB), type IV pilus assembly ATPase (Chloracidobacterium thermophilum)
MEASUREMENT NAME: Kd (nM)
Response body: numeric value in nM, unit text excluded.

// query Which Kd value is on record for CNc1ccccc1C(=O)O[C@H]1[C@@H](O)[C@H](n2cnc3c(N)ncnc32)O[C@@H]1CO[P@@](=O)(O)O[P@](=O)(O)OP(=O)(O)O [MANT-ATP] ?
// result 290

Source: paper PMC8546689
